assay: Cell survival assay; type: cell-based; conditions: human, HEK-293 cells
measurement-label: IC50 at 48 h (nM)
Form entry: value (nM) — number only.

Problem: # input molecule: CC(=O)O[C@H]1C(=O)[C@@]2(C)[C@H]([C@H](OC(=O)c3ccccc3)[C@]3(O)C[C@H](OC(=O)[C@H](O)[C@@H](NC(=O)c4ccccc4)c4ccccc4)C(C)=C1C3(C)C)[C@]1(OC(C)=O)CO[C@@H]1C[C@@H]2O ; wanted: its IC50 at 48 h
Solution: 27.8

These measurements were taken from paper PMC12094199.
